# Test Target: ICAM-1 (Homo sapiens, UniProt P05362 P05362:28-532)
# Sequence (P05362 28-532, one chain of several): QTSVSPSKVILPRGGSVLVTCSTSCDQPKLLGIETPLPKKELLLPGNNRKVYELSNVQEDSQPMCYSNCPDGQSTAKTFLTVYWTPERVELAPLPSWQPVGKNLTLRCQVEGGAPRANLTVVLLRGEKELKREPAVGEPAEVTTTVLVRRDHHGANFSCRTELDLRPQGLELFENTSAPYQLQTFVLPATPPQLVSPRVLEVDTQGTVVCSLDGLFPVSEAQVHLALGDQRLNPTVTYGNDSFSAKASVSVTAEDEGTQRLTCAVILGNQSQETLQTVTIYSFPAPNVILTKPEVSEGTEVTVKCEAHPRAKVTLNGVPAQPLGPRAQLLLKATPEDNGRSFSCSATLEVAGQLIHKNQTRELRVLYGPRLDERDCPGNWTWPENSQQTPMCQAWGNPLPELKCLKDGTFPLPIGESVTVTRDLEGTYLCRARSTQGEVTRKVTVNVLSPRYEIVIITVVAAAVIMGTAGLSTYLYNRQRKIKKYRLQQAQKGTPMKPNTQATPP
# Test Summary: RT-qPCR cell binding on COS7-ICAM-1, 37 C 15 min, yeast tRNA 200 ug/mL pre-treatment
# Experimental Parameters: tags: full-length human ICAM-1 cDNA (pCMV6-ICAM-1) transiently expressed in COS7 cells
pKd: −log10 of the molar value.

Binder	pKd
10.T (ssRNA, 2'-F pyrimidines) RNA: UCAUGAUACGUUGCGUGAGCAACUGCGGCGCUAAAGUUUGGUUGACUAGUACAUG	6.43
